Where do the numbers come from? From patent US8461349B2.

test system: caterpillars of the army worm (Spodoptera frugiperda); assay: Spodoptera frugiperda test (cabbage leaves dipped); format: in vivo; conditions: 4 ppm, after 3 d
Entries and their Kill rate in % after 3^d
State just the number; it will be interpreted in %.

Example compounds with recorded Kill rate in % after 3^d:
# COMPOUND, Kill rate in % after 3^d / %
rows = [
    ("N#C/N=C1\\SCCN1Cc1ccc(Cl)nc1 [thiacloprid (III)]", 0),
    ("O=[N+]([O-])/N=C1\\NCCN1Cc1ccc(Cl)nc1 [imidacloprid (II)]", 0),
    ("C/C(=N\\C#N)N(C)Cc1ccc(Cl)nc1 [acetamiprid (IV)]", 65),
]

Now take the following compound into account.
Find the recorded Kill rate in % after 3^d belonging to CN/C(=N\[N+](=O)[O-])NCc1cnc(Cl)s1 [chlothianidin (VII)] and report it.
85
